Can you tell me apparent KD of MS2 coat protein for the items I'm about to list?
# Tested on: MS2 coat protein
# experiment description: apparent KD of MS2 coat protein; designed switch direction (-1 OFF switch, 1 ON switch): 1; higher = weaker reporter binding
# assay setup: input ligand: FMN 200 uM
Answers are plain numbers, in µM.

Field: example entries. Status: answers known.
INSERT INTO results (record_sequence, numeric_value) VALUES
  ('UAUCCAUAGAUAGGAUAUUAGUGAACAUGAGGAUCACCCAUGUUUUGCUUGGUUUUAAGUUAAUCUGAGAAGGAUCUUGAUGAA [SameState NG2 #5] (Eterna round: R96, puzzle: Same State NG 2)', 0.0203),
  ('AUUUUUAAUGCAGGAUAUGAUUAACAUGAGGAUCACCCAUGUGGUGUUGUGAGUAAGGAGAGUGAUCAGAAGGGCAUUUUGUUU [JMF''s solution 83] (Eterna round: R96, puzzle: Same State NG 2)', 0.747),
  ('UUAUUAAUUACAUGAGGAUCACCCAUGUUUUUUUGUCAGAGACAGGAUAUAGAAGUCUCGUUUUACUAGAAGGGUCAUUAUAUG [JR_SSNG3_Sub014] (Eterna round: R96, puzzle: Same State NG 3)', 0.0256),
  ('UAUCUCAUGUAAGGAUAUGCAGCCGUUUCGGCUGCAGAAGGUACUAUAAUACAUGAGGAUCACCCAUGUCUCUAUUAUUUAGUU [JL SSNG1 1.45] (Eterna round: R96, puzzle: Same State NG 1)', 0.0576);

Moving on to another sequence below.
Entry UUUAGAUCGCGAGGAUAUCGCGAGGAUCACCCGUGAGAAGGCGCAGAGCCGAGGAUCACCCGGCUGAUCCUGAGGAGGAGGUCU (Eterna round: R96, puzzle: Same State NG 1) has what apparent KD of MS2 coat protein?
0.106

====

Can you tell me apparent KD of MS2 coat protein for the items I'm about to list?
# System: MS2 coat protein
# experiment description: apparent KD of MS2 coat protein, switch ON state; designed switch direction (-1 OFF switch, 1 ON switch): -1; higher = weaker reporter binding
# assay setup: FMN input: 0 or 200 uM; Eterna round: R93 (includes R88 designs)
One number for each entry, in nM.

Field: example entries. Status: answers known.
INSERT INTO results (record_sequence, experimental_target, measured_parameter, units_text, numeric_value) VALUES
  ('AAAAAACAUGAGGAUCACCCAUGUAAGGAUAUCAGAGAAUUAAAAAAAAAAAAAAAAAUGAGAAGGUACAAAAA [excaliber]', 'MS2 coat protein', 'apparent KD of MS2 coat protein', 'nM', 31.7),
  ('CCCAUGUCAGGAUAUCAGUAGUAAAAAAAAAAAAUUACUACUGAGAAGGGACAUGAGGAUCACCCAUGUCACUU [EX4 320: Super Stable 20]', 'MS2 coat protein', 'apparent KD of MS2 coat protein', 'nM', 74.9);

Moving on to another sequence below.
Entry GAAACUGGAGGAUAUACGUACAUGUCAAAAGACGUGAAGGGACAUGAGGAUCACCCAUGUAGAAGGCUAGAAAG [Mat - Exclusion 2 - JL mod - D97] has what apparent KD of MS2 coat protein?
70.6

====

# Test system: MS2 coat protein
# experiment description: apparent KD of MS2 coat protein; designed switch direction (-1 OFF switch, 1 ON switch): -1; higher = weaker reporter binding
# assay setup: Eterna round: R98; input ligand: FMN 200 uM
Would you mind labelling by apparent KD of MS2 coat protein? At or over 20 nM is yes (1), under is no (0).

Recorded results for 3 sequences are shown here.
INSERT INTO results (record_sequence, category_label) VALUES
  ('GCGCGCGCGUCAGGAUAUACAUGAGGAUCACCCAUGUGUGCGCGCGCGCGCGCGCGCGCGCGCGUGUAGAAGGGACGCUGUCGC [Incredible-Exclusion NG 2]', 'yes (1)'),
  ('AAUAUAAAGAGCUGGUCUCAAAUAACAUGAGGAUCACCCAUGUAGGAUAUCAGCACGAUAAGUGCUGAGAAGGACAUCCAGCUC [Denovo 49]', 'no (0)'),
  ('AAAAUAAAGGCAGGAUAUACAUGAAUAUAUAAUAUAAUAUAUAAUAUAACAUGAGGAUCACCCAUGUAGAAGGGCCAAAAUAAA [LRO026_Exclusion NG 2]', 'yes (1)');

Evaluate UCAGGUCGGGAAGGAUAUCGGCCGCAGAGAGCUCGAGAAGGUCCCGACAUGAGGAUCACCCAUGUUGAAGGAUCCUAACGUGCC [Maonan] : apparent KD of MS2 coat protein at minimum 20 nM?
yes (1)

Values were extracted from the supplement of paper PMC9170038.
